Test: [3H]-Gabapentin Binding Assay: A test compound (20 μL) diluted to 5 times of the final concentration with Binding buffer, [3H]-gabapentin diluted to 100 nmol/L with binding buffer [20 μL (final concentration 20 nmol/L)], and the rat cerebral cortex membrane fraction (60 μL; 12 μg membrane fraction) obtained in the (1) above were added to each well of a 96-well round-bottom plate. After being sufficiently mixed, these were allowed to react at room temperature for 1 hour. After the reaction, the reaction sample was suction filtered using a filter plate with 50 μL/well of 0.3 vol % polyethyleneimine added, and a cell harvester. The filter was then washed with ice-cooled Wash buffer (100 mmol/L NaCl, 0.1 w/v % BSA). After being washed, the filter plate was dried, and a scintillation cocktail (MicroScint-20, purchased from PerkinElmer) was added (50 μL/well), and the radioactivity on the filter was measured. The radioactivity obtained in the absence of the test compound was measured as total binding amount, and the radioactivity obtained by addition of an unlabeled gabapentin (final concentration 100 mmol/L) as a test compound was measured as non-specific binding amount.
Assay Readout: pIC50
In plain terms, pIC50 is the concentration in mol/L turned into minus its base-10 logarithm.

Here's what some known entries look like.
- Structure Smiles String: "CCNc1ncc2c(n1)N1CCC[C@H]1CN(c1cccn3c(=O)cc(C)nc13)C2=O"
  pIC50: 8.28
- Structure Smiles String: "CCCNc1ncc2c(n1)N1CCC[C@H]1CN(c1cccc3c(=O)n(C)cnc13)C2=O"
  pIC50: 8.52
- Structure Smiles String: "CCNc1ncc2c(n1)N1CCC[C@H]1CN(c1cccc3ncn(C)c(=O)c13)C2=O"
  pIC50: 8.41

Task: Reported pIC50, molecule CNc1ncc2c(n1)N1CCC[C@H]1CN(c1cncc3c(=O)n(C)cnc13)C2=O : ____
Output: 8.39

Task: Quick one: pIC50 of CCNc1ncc2c(n1)N1CCC[C@H]1CN(c1cccc3c(=O)n(CCF)c(C)nc13)C2=O ?
Output: 8.32

Task: Field request: pIC50 | item: CCNc1ncc2c(n1)N1CCC[C@H]1CN(c1cccc3c(=O)n(C)ccc13)C2=O
Output: 8.30

Task: pIC50 for CCNc1ncc2c(n1)N1CCC[C@H]1CN(c1c[nH]c3ncn(C)c(=O)c13)C2=O ?
Output: 8.59

Task: May I ask what pIC50 has been recorded for CNc1ncc2c(n1)N1CCC[C@H]1CN(c1cccc3c(=O)n(CCCN(C)C)cnc13)C2=O ?
Output: 8.92

Task: Which pIC50 reading was recorded for the molecule CNc1ncc2c(n1)N1CCC[C@H]1CN(c1cccn3c(=O)c(C)c(C)nc13)C2=O ?
Output: 8.33

Task: Any idea what its pIC50 is? The molecule is CCNc1ncc2c(n1)N1CCC[C@H]1CN(c1cccc3c(=O)n(C)c(C)nc13)C2=O
Output: 8.59

Task: Any idea what its pIC50 is? The molecule is CCn1cnc2c(N3C[C@@H]4CCCN4c4nc(NC)ncc4C3=O)cccc2c1=O
Output: 8.40

Task: Fill in: pIC50 of CCNc1ncc2c(n1)N1CCC[C@H]1CN(c1cccn3c(=O)c(C)c(C)nc13)C2=O is ___
Output: 8.57

Task: // returns reported pIC50 for input CNc1ncc2c(n1)N1CCC[C@H]1CN(c1c[nH]c3ncn(C)c(=O)c13)C2=O
Output: 8.44

Task: Which pIC50 value is on record for CNc1ncc2c(n1)N1CCC[C@H]1CN(c1cccc3c(=O)n(C)cnc13)C2=O ?
Output: 8.59

Task: Name the recorded pIC50 for CCNc1ncc2c(n1)N1CCC[C@H]1CN(c1cccc3c(=O)n(CCCN(C)C)cnc13)C2=O .
Output: 9.15

Task: Entry CCNc1ncc2c(n1)N1CCC[C@H]1CN(c1cccc3c(=O)n(C)c(COC)nc13)C2=O : reported pIC50 = ?
Output: 8.42

Task: Which value of pIC50 has been reported for CCNc1ncc2c(n1)N1CCC[C@H]1CN(c1scc3c(=O)n(C)cnc13)C2=O in the records?
Output: 8.52
